Target: CXCR3 (Homo sapiens, UniProt P49682)
Construct: expressed in transfected cells; membrane preparation
Sequence (P49682 whole entry): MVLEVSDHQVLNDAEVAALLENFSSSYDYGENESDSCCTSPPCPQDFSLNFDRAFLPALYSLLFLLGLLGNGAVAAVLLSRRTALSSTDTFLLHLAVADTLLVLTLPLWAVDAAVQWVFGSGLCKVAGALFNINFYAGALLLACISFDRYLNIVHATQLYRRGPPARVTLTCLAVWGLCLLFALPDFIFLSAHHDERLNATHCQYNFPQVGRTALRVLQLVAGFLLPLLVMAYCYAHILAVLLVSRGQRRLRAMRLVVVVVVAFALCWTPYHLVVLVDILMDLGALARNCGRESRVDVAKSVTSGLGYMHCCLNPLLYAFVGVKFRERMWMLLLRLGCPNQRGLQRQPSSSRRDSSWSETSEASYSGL
Experiment: CXCR3/IP-10 radioligand binding (125I-IP-10 competition on CXCR3.L1/2 cell membranes)
Conditions: test compound 10 μmol/L; 125I-labeled IP-10 binding to CXCR3.L1/2 transfectant cell membranes; results Table 6
In this section we review reported inhibition at 10 µM values for a set of compounds.
MEASURED PARAMETER: inhibition at 10 µM

>>> df
                                 cpd_smiles   measured_parameter  reported
0  CCCNCc1cccc(N(CC)C(=O)CCN2CCN(Cc3cc(C)cc(C)c3)C2=C(C#N)C#N)c1  inhibition at 10 µM       71%
1  Cc1cc(C)cc(CN2CCN(CCC(=O)N(c3cccc(CN4CCOCC4)c3)C(C)C)C2=C(C#N)C#N)c1  inhibition at 10 µM       93%
2  Cc1cc(C)cc(CN2CCN(CCC(=O)N(c3cccc(CN(C)CCO)c3)C(C)C)C2=C(C#N)C#N)c1  inhibition at 10 µM       92%
3  Cc1cc(C)cc(CN2CCN(CCC(=O)N(c3cccc(CN(CCO)CCO)c3)C(C)C)C2=C(C#N)C#N)c1  inhibition at 10 µM       93%
4  CCOC(=O)C1CCN(Cc2cccc(N(C(=O)CCN3CCN(Cc4cc(C)cc(C)c4)C3=C(C#N)C#N)C(C)C)c2)CC1  inhibition at 10 µM      107%
5  CC(C)N(C(=O)CCN1CCN(Cc2cc(Cl)cc(Cl)c2)C1=C(C#N)C#N)c1cccc(CN2CCCCC2)c1  inhibition at 10 µM       93%
6  CCCN(C(=O)CCN1CCN(Cc2cc(Cl)cc(Cl)c2)C1=C(C#N)C#N)c1cccc(CN2CCCCC2)c1C  inhibition at 10 µM       68%

----------
Documented inhibition at 10 µM across a set of compounds
Target: CXCR3 (Homo sapiens)
Construct: expressed in transfected cells; membrane preparation
Test: CXCR3/IP-10 radioligand binding (125I-IP-10 competition on CXCR3.L1/2 cell membranes)
Details: test compound 10 μmol/L; 125I-labeled IP-10 binding to CXCR3.L1/2 transfectant cell membranes; results Table 5
MEASURED PARAMETER: inhibition at 10 µM (%)

In [3]: df
Out[3]:
                                   compound  reported
0  CC(=O)OCCN(C(=O)CCN1CCN(Cc2cc(C)cc(C)c2)C1=C(C#N)C#N)c1cccc(CN2CCCCC2)c1 [Compound 6]        93
1  Cc1cc(C)cc(CN2CCN(CCC(=O)N(CCCF)c3cccc(CN4CCCCC4)c3)C2=C(C#N)C#N)c1 [Compound 11]        95
2  CCOC(=O)CN(C(=O)CCN1CCN(Cc2cc(C)cc(C)c2)C1=C(C#N)C#N)c1cccc(CN2CCCCC2)c1 [Compound 8]        95
3  Cc1cc(C)cc(CN2CCN(CCC(=O)N(Cc3ccccc3)c3cccc(CN4CCCCC4)c3)C2=C(C#N)C#N)c1 [Compound 5]        95
4  Cc1cc(C)cc(CN2CCN(CCC(=O)N(C)c3cccc(CN4CCCCC4)c3)C2=C(C#N)C#N)c1 [Compound 1]        92
5  Cc1cc(C)cc(CN2CCN(CCC(=O)N(CCO)c3cccc(CN4CCCCC4)c3)C2=C(C#N)C#N)c1 [Compound 7]        83
6  Cc1cc(C)cc(CN2CCN(CCC(=O)N(CC(=O)O)c3cccc(CN4CCCCC4)c3)C2=C(C#N)C#N)c1 [Compound 9]        83
7  Cc1cc(C)cc(CN2CCN(CCC(=O)N(c3cccc(CN4CCCCC4)c3)C(C)C)C2=C(C#N)C#N)c1 [Compound 3]       106

----------
We begin with a simple list: items and their reported inhibition at 10 µM.
Molecular target: CXCR3 (Homo sapiens, UniProt P49682)
Construct: expressed in transfected cells; membrane preparation
Assay: CXCR3/IP-10 radioligand binding (125I-IP-10 competition on CXCR3.L1/2 cell membranes)
Conditions: test compound 10 μmol/L; 125I-labeled IP-10 binding to CXCR3.L1/2 transfectant cell membranes; results Table 5
MEASURED PARAMETER: inhibition at 10 µM

>>> df
                                   compound   measured_parameter  reported
0  CCCN(C(=O)CCN1CCN(Cc2cc(C)cc(C)c2)C1=C(C#N)C#N)c1cccc(CN2CCCCC2)c1 [Compound 2]  inhibition at 10 µM       99%
1  Cc1cc(C)cc(CN2CCN(CCC(=O)N(Cc3nnn[nH]3)c3cccc(CN4CCCCC4)c3)C2=C(C#N)C#N)c1 [Compound 13]  inhibition at 10 µM       67%
2  Cc1cc(C)cc(CN2CCN(CCC(=O)N(CC(N)=O)c3cccc(CN4CCCCC4)c3)C2=C(C#N)C#N)c1 [Compound 12]  inhibition at 10 µM       84%
3  Cc1cc(C)cc(CN2CCN(CCC(=O)N(c3cccc(CN4CCCCC4)c3)C3CCCCC3)C2=C(C#N)C#N)c1 [Compound 4]  inhibition at 10 µM      109%
